Kindly state pIC50 for each of the entries shown.
# SYSTEM: Phosphatidylinositol 4,5-bisphosphate 3-kinase catalytic subunit gamma isoform (Homo sapiens)
# Sequence (P48736 whole entry, canonical isoform): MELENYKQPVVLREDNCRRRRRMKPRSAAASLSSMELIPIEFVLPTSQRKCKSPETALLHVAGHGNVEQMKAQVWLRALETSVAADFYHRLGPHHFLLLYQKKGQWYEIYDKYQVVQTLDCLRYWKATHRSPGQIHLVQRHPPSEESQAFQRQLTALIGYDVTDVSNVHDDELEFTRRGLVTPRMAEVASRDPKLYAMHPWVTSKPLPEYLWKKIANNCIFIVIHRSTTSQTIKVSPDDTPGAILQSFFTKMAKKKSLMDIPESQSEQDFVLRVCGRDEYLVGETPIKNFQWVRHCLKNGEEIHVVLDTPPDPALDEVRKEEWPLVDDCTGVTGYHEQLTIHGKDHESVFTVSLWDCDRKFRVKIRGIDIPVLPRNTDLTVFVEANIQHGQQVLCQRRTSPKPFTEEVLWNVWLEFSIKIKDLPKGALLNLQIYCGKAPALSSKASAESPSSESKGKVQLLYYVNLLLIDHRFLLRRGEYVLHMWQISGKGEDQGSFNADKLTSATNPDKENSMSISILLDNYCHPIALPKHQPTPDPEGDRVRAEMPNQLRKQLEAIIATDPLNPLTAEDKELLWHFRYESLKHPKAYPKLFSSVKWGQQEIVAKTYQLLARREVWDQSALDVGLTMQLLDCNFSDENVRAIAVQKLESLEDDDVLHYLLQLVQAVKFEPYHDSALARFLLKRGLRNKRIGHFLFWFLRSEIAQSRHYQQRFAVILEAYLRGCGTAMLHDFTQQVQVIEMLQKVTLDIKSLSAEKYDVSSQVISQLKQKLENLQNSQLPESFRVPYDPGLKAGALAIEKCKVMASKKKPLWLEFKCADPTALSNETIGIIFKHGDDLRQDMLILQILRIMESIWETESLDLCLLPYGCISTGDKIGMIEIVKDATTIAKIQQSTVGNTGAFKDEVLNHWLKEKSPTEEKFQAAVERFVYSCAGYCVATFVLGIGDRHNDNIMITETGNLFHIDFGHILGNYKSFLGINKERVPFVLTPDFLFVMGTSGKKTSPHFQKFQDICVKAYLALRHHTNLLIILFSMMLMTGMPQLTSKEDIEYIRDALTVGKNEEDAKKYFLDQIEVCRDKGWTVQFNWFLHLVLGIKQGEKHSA
# TEST DETAILS: Inhibition of human full length p110gamma using PIP2 as substrate after 30 mins in presence of ATP at 2xKm concentration by TR-FRET assay
pIC50: −log10 of the molar value.

What the record says about C[C@@H](Nc1cc(F)cc(F)c1)c1cc(C(=O)N(C)C)cc2c(=O)cc(N3CCOCC3)oc12 [AZD-8186] : pIC50 is 5.22

What the record says about `Cc1nc2c(-c3nnc[nH]3)cc(-c3ccnc(Cl)c3)cc2n1-c1ccnc2c(F)ccc(F)c12` : pIC50 is 5.20

What the record says about `Cc1nc2c(-c3nnc[nH]3)cc(-c3cc(N)ncc3F)cc2n1-c1ccnc2c(F)ccc(F)c12` : pIC50 is < 5.00

What the record says about `Cc1cc(-c2cc(-c3nnc[nH]3)c3nc(C)n(-c4ccnc5c(F)ccc(F)c45)c3c2)ccn1` : pIC50 is < 5.00

What the record says about Cc1cc(C(C)Nc2ccccc2)c2nc(N3CCOCC3)cc(=O)n2c1 (stereo not drawn) : pIC50 is < 5.00

What the record says about `Cc1c(-c2cc(-c3nnc[nH]3)c3nc(C)n(-c4ccnc5c(F)ccc(F)c45)c3c2)ccnc1N` : pIC50 is < 5.00

What the record says about `Cc1nc2c(-c3nnc[nH]3)cc(-c3c(F)cnc(N)c3F)cc2n1-c1ccnc2c(F)ccc(F)c12` : pIC50 is < 5.00

What the record says about `Cc1cc(-c2cc(-c3nnc[nH]3)c3nc(C)n(-c4ccnc5c(F)ccc(F)c45)c3c2)ncn1` : pIC50 is < 5.00

What the record says about `Cc1nccc(-c2cc(-c3nnc[nH]3)c3nc(C)n(-c4ccnc5c(F)ccc(F)c45)c3c2)n1` : pIC50 is 5.57

What the record says about `Cc1nc2c(-c3nnc[nH]3)cc(-c3ccnc(C#N)c3)cc2n1-c1ccnc2c(F)ccc(F)c12` : pIC50 is 5.18

What the record says about `Cc1nc2c(-c3nnc[nH]3)cc(-c3ccnc(C(F)F)c3)cc2n1-c1ccnc2c(F)ccc(F)c12` : pIC50 is 5.03

What the record says about `Cc1cc(-c2cc(-c3nnc[nH]3)c3nc(C)n(-c4ccnc5c(F)ccc(F)c45)c3c2)cc(N)n1` : pIC50 is < 5.00

What the record says about `Clc1cccc2c(-n3cnc4c(-c5nnc[nH]5)cc(N5CCOCC5)cc43)ccnc12` : pIC50 is 6.46

What the record says about `CNc1nccc(-c2cc(-c3nnc[nH]3)c3nc(C)n(-c4ccnc5c(F)ccc(F)c45)c3c2)c1F` : pIC50 is < 5.00

What the record says about `Clc1cccc2c(-n3cnc4c(-c5ncn[nH]5)cc(-c5ccncc5)cc43)ccnc12` : pIC50 is 5.28

What the record says about `Cc1nc2c(-c3nnc[nH]3)cc(-c3ccnc(N)c3Cl)cc2n1-c1ccnc2c(F)ccc(F)c12` : pIC50 is < 5.00

What the record says about `Cc1nc2c(-c3nnc[nH]3)cc(-c3ccnc(N)c3)cc2n1-c1ccnc2c(F)ccc(F)c12` : pIC50 is < 5.00

What the record says about `Cc1nc2c(-c3nnc[nH]3)cc(-c3ccncc3)cc2n1-c1ccnc2c(F)ccc(F)c12` : pIC50 is < 5.00
